# Test system: Mucor
# MEASUREMENT DESCRIPTION: Antifungal activity against Mucor species
# Format: functional
READOUT KIND: MFC (µg/mL)
The figure you give is taken to be in µg/mL; do not add the unit.

MOLECULE	UNIT INFO	MFC
CC[C@@H]([C@H](C)O)n1ncn(-c2ccc(N3CCN(c4ccc(OC[C@@H]5CO[C@@](Cn6cncn6)(c6ccc(F)cc6F)C5)cc4)CC3)cc2)c1=O [POSACONAZOLE]	µg/mL	2

Specify reported MFC for the molecule shown: C[C@@H]1[C@H](O)[C@@H](C)/C=C/C=C/C=C/C=C/C=C/C=C/C=C/[C@H](O[C@@H]2O[C@H](C)[C@@H](O)[C@H](N)[C@@H]2O)C[C@@H]2O[C@](O)(C[C@@H](O)C[C@@H](O)[C@H](O)CC[C@@H](O)C[C@@H](O)CC(=O)O[C@H]1C)C[C@H](O)[C@H]2C(=O)O [AMPHOTERICIN B]
1

###

# System: Clavispora lusitaniae
# MEASUREMENT DESCRIPTION: Antifungal activity against Candida lusitaniae
# Type: functional
READOUT KIND: MFC (µg/mL)
Supply the numeric figure in µg/mL, leaving out any unit text.

Some entries whose results are on file:
COMPOUND	MFC, µg/mL
CC[C@H](C)C[C@H](C)CCCCCCCCC(=O)N[C@H]1C[C@@H](O)[C@@H](NCCN)NC(=O)[C@@H]2[C@@H](O)CCN2C(=O)[C@H]([C@H](O)CCN)NC(=O)[C@H]([C@H](O)[C@@H](O)c2ccc(O)cc2)NC(=O)[C@@H]2C[C@@H](O)CN2C(=O)[C@H]([C@@H](C)O)NC1=O	4
C[C@@H]1[C@H](O)[C@@H](C)/C=C/C=C/C=C/C=C/C=C/C=C/C=C/[C@H](O[C@@H]2O[C@H](C)[C@@H](O)[C@H](N)[C@@H]2O)C[C@@H]2O[C@](O)(C[C@@H](O)C[C@@H](O)[C@H](O)CC[C@@H](O)C[C@@H](O)CC(=O)O[C@H]1C)C[C@H](O)[C@H]2C(=O)O	4
C[C@@H](c1ncncc1F)[C@](O)(Cn1cncn1)c1ccc(F)cc1F	0.06
CC[C@@H]([C@H](C)O)n1ncn(-c2ccc(N3CCN(c4ccc(OC[C@@H]5CO[C@@](Cn6cncn6)(c6ccc(F)cc6F)C5)cc4)CC3)cc2)c1=O	0.06

Here is another compound to look at.
Tell me its MFC given CCC(C)n1ncn(-c2ccc(N3CCN(c4ccc(OCC5COC(Cn6cncn6)(c6ccc(Cl)cc6Cl)O5)cc4)CC3)cc2)c1=O (stereo not given) as the entry.
0.25

###

# Tested on: Trichosporon asahii
# MEASUREMENT DESCRIPTION: Antifungal activity against Trichosporon asahii by EUCAST method
# Format: functional
Decide using MIC alone. Strictly below 4 µg/mL: MET. Equal to or above 4 µg/mL: NOT MET.

These solved cases illustrate the format of a correct answer.
MOLECULE	LABEL CLASS
CCC(C)n1ncn(-c2ccc(N3CCN(c4ccc(OCC5COC(Cn6cncn6)(c6ccc(Cl)cc6Cl)O5)cc4)CC3)cc2)c1=O (stereo not given) [ITRACONAZOLE]	MET
C[C@@H](c1ncncc1F)[C@](O)(Cn1cncn1)c1ccc(F)cc1F [VORICONAZOLE]	MET
C[C@@H]1[C@H](O)[C@@H](C)/C=C/C=C/C=C/C=C/C=C/C=C/C=C/[C@H](O[C@@H]2O[C@H](C)[C@@H](O)[C@H](N)[C@@H]2O)C[C@@H]2O[C@](O)(C[C@@H](O)C[C@@H](O)[C@H](O)CC[C@@H](O)C[C@@H](O)CC(=O)O[C@H]1C)C[C@H](O)[C@H]2C(=O)O [AMPHOTERICIN B]	MET

Then this molecule:
Threshold test, MIC < 4 µg/mL: CC[C@@H]([C@H](C)O)n1ncn(-c2ccc(N3CCN(c4ccc(OC[C@@H]5CO[C@@](Cn6cncn6)(c6ccc(F)cc6F)C5)cc4)CC3)cc2)c1=O [POSACONAZOLE]
NOT MET
